system: Protein-tyrosine kinase 6 (Homo sapiens)
measurement-context: at 0.1 µM
Description: GSK_PKIS: BRK mean inhibition at 0.1 uM [Nanosyn]
observation-type: inhibition (%)

1) NS(=O)(=O)c1ccc(Nc2cc(-c3ccc(O)c(F)c3)n[nH]2)cc1
-4.55
2) NS(=O)(=O)c1ccc(N/N=C2\C(=O)Nc3ccc(-c4cnco4)cc32)cc1
3.53
3) CS(=O)(=O)CCNCc1ccc(-c2ccc3ncnc(Nc4ccc(OCc5ccccc5)c(Br)c4)c3c2)o1
4.61
4) Cc1ccc(C(=O)NC(C)C)cc1-c1ccc(C(=O)NCC2CC2)cc1
-3.3
5) N#Cc1ccc(Oc2nccc(-c3c(-c4ccc(F)cc4)ncn3C3CCNCC3)n2)cc1
4.1
6) C[C@@H](Oc1cc(-n2cnc3ccc(OCC4CCN(C)CC4)cc32)sc1C(N)=O)c1ccccc1Cl
5.93
7) Fc1ccc(-c2ncn(C3CCNCC3)c2-c2ccnc(Oc3ccc(F)c(F)c3)n2)cc1
2.61
8) COc1cccc(/C=N/Nc2ncnc3c2cnn3-c2cccc(OC)c2)c1
2.5
9) CCc1nccc2c1nc(-c1nonc1N)n2CC
-3.14
10) NC(=O)c1ccc(Oc2nccc(-c3c(-c4ccc(F)cc4)ncn3C3CCNCC3)n2)cc1
3.36
11) NCc1ccc(-n2c(-c3nonc3N)nc3cnccc32)cc1
5.04
12) Clc1ccc(CNc2nccc(-c3cnn4ncccc34)n2)cc1
0.74
13) COc1cc(N2CCN(C(C)C)CC2)ccc1Nc1nc(Nc2ccc(F)cc2C(=O)NC[C@@H](O)CO)c2cc[nH]c2n1
4.82
14) COC(=O)Nc1nc2ccc(Sc3ccc(NC(=O)Nc4cc(C(F)(F)F)ccc4F)cc3)cc2[nH]1
1.16
15) CN(C)CCOc1ccc(-c2cc(-c3ccc4c(c3)CCC4=NO)c(-c3ccncc3)o2)cc1
1.76
16) COc1cc(Nc2ncc3c(C)nc(-c4cccc(C(F)(F)F)c4)n3n2)cc(OC)c1OC
3.48
17) Fc1ccc(-c2ncn(C3CCNCC3)c2-c2ccnc(Oc3ccc(Oc4ccccc4)cc3)n2)cc1
1.09
18) O=C(Nc1n[nH]c2cc(-c3ccccc3)ccc12)C1CC1
2.71
19) COc1ccc2ncn(-c3cc(O[C@H](C)c4ccccc4Cl)c(C(N)=O)s3)c2c1
-0.06
20) O=C(NCC1CC1)c1ccc(-c2cccc(C(=O)NC3CC3)c2)cc1
0.45

====

Recorded inhibition by entry
system: Cyclin-dependent kinase 6 (Homo sapiens) (UniProt Q00534);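 further: mean percent inhibition of the kinase bound to its cyclin partner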
Sequence (Q00534 whole entry): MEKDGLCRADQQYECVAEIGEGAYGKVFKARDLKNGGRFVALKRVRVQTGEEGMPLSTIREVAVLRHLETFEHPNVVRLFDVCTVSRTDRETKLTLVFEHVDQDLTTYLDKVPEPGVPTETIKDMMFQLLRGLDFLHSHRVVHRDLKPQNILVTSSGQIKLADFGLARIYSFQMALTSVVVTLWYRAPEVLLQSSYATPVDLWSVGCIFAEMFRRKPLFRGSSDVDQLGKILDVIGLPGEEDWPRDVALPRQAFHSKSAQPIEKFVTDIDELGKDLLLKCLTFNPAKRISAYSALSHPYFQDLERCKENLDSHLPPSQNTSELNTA
measurement-context: at 1 µM
observation-type: inhibition (%)

1. CN(C)c1ccc2c(c1)/C(=C/Nc1ccc(S(N)(=O)=O)cc1)C(=O)N2
48.2
2. COc1cc(Nc2ncc3c(C)nc(-c4cccc(Oc5ccccc5)c4)n3n2)cc(OC)c1OC
3.25
3. FC(F)(F)c1cccc(Nc2nccc(-c3cnn4nc(-c5ccccc5)ccc34)n2)c1
2.53
4. COC(=O)Nc1nc2ccc(Sc3ccc(NC(=O)Nc4cc(C(F)(F)F)ccc4F)cc3)cc2[nH]1
2.22
5. c1ccc(-c2n[nH]cc2-c2ccnc(-c3ccc(OCCN4CCOCC4)cc3)c2)nc1
4.81
6. O=C(NCC1CC1)c1ccc(-c2cccc(C(=O)NC3CC3)c2)cc1
-0.5
7. C/C(Nc1ccc(S(N)(=O)=O)cc1)=C1/C(=O)Nc2ccccc21
74.7
8. CS(=O)(=O)CCNCc1cc(-c2cc3c(Nc4ccc(OCc5cccc(F)c5)c(Cl)c4)ncnc3s2)cs1
-0.13
9. CCC(=O)Nc1ccc(C)c(-c2ccc(C(=O)NCC3CC3)cc2)c1
0
10. NC(=O)Cc1ccccc1Oc1nccc(-c2c(-c3ccc(F)cc3)ncn2C2CCNCC2)n1
0.67
11. CCc1cccc(CC)c1/C=C/c1cncc(C(=O)NC)c1
2.84
12. Nc1nccc(-c2c(-c3ccc(F)cc3)ncn2C2CCC(O)CC2)n1 (stereo not given)
1.1
13. C#Cc1cccc(Nc2ncnc3ccc(OCCCCNCCS(C)(=O)=O)cc23)c1
0.21
14. COc1cc2ncn(-c3cc(OCc4cccs4)c(C(N)=O)s3)c2cc1OC
-6.37
15. Fc1ccc(-c2ncn(C3CCNCC3)c2-c2ccnc(Oc3ccc4c(c3)OCO4)n2)cc1
2.27
16. COc1ccc2ncn(-c3cc(O[C@H](C)c4ccccc4Cl)c(C(N)=O)s3)c2c1
-2.1
17. NS(=O)(=O)c1ccc(N/N=C2\C(=O)Nc3ccc(C(=O)NCCCn4ccnc4)cc32)cc1
57.2
18. C[C@@H](Oc1cc(-n2cnc3ccc(OC4CCN(C)CC4)cc32)sc1C(N)=O)c1ccccc1Cl
-2.7
19. O=C(Nc1n[nH]c2cc(-c3cc(F)ccc3F)ccc12)C1CC1
39.6
20. CN(C)CCOc1ccc(-c2cc(-c3ccc4c(c3)CCC4=NO)c(-c3ccncc3)o2)cc1
-0.6
21. CCS(=O)(=O)c1ccc(OC)c(Nc2ncc(-c3ccccc3Cl)o2)c1
3.06
22. O=C(Nc1ccc(Oc2ccc3[nH]c(NC(=O)c4ccccc4)nc3c2)cc1)Nc1cc(C(F)(F)F)ccc1F
4.46
23. O=C1Nc2ccccc2/C1=C/Nc1ccc(-n2cncn2)cc1
66.2
24. COc1cc(C)c(N(C)C(=O)CN(C)C)cc1Nc1nc(Nc2cccc(F)c2C(N)=O)c2cc[nH]c2n1
-2.66
25. O=C1NC(=O)C(c2cccc(Cl)c2)=C1Nc1ccc(Cl)c(C(=O)O)c1
1.32

====

system: MAP/microtubule affinity-regulating kinase 3 (Homo sapiens);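 further: reported values are averaged percent inhibition of MARK3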
measurement-context: at 1 µM
observation-type: inhibition

1) NC(=O)c1cc(-c2ccc(F)cc2)cc(-c2ccncc2)c1N
-2.7%
2) Fc1ccc(-c2ncn(C3CCNCC3)c2-c2ccnc(Oc3ccc4c(c3)OCO4)n2)cc1
5.12%
3) COc1ccc2ncn(-c3cc(O[C@H](C)c4ccccc4Cl)c(C(N)=O)s3)c2c1
3.11%
4) NS(=O)(=O)c1ccc(N/N=C2\C(=O)Nc3ccc(-c4cnco4)cc32)cc1
17.4%

====

Recorded inhibition by entry
Tested on: Platelet-derived growth factor receptor alpha (Homo sapiens), P16234 [D842V]
Sequence (P16234 whole entry D842V): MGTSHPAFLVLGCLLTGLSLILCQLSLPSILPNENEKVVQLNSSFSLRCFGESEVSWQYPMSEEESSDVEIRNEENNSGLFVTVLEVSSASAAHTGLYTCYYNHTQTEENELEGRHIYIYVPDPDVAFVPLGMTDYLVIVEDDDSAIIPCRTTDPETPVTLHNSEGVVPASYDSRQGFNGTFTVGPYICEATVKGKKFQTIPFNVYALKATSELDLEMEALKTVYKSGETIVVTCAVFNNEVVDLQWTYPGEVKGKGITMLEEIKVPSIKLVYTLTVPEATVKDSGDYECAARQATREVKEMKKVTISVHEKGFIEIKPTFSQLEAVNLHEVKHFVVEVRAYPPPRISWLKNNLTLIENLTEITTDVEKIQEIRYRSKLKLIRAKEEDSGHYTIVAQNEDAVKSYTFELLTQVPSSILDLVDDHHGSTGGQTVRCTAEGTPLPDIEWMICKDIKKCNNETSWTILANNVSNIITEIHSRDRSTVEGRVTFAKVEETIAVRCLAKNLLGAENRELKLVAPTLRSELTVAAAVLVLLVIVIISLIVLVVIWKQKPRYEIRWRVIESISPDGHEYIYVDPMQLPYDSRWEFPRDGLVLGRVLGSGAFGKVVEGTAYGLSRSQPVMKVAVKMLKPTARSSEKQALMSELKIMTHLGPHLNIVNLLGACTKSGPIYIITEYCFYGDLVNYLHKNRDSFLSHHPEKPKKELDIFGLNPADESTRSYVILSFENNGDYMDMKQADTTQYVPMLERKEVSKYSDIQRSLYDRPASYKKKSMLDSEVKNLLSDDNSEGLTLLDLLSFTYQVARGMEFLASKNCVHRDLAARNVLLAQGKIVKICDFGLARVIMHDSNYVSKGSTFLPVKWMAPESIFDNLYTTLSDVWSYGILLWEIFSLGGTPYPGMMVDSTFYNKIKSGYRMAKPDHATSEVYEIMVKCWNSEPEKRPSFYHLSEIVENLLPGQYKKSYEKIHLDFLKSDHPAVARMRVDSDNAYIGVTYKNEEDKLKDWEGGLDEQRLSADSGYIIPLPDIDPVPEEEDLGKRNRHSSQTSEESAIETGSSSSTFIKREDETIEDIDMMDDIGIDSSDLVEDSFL
measurement-context: at 1 µM
observation-type: inhibition

1) COc1cc(Nc2ncc(-c3ccccc3)o2)cc(OC)c1OC
43%
2) CCc1ccc(Oc2nccc(-c3c(-c4ccc(F)cc4)ncn3C3CCNCC3)n2)cc1
3.96%
3) NS(=O)(=O)c1ccc(Nc2cc(-c3ccc(O)c(F)c3)n[nH]2)cc1
39.5%
4) CCS(=O)(=O)c1ccc(OC)c(Nc2ncc(-c3ccccc3Cl)o2)c1
4.35%
5) CN(C)CCOc1ccc(-c2cc(-c3ccc4c(c3)CCC4=NO)c(-c3ccncc3)o2)cc1
2.8%
6) O=C1Nc2ccc(I)cc2C1=Cc1cc(Br)c(O)c(Br)c1
3.36%
7) Cc1nnc(-c2ccc(C)c(-c3ccc(C(=O)NCc4ccc(Cl)cc4)cc3)c2)o1
2.53%
8) COc1ccc(C2=C(N3CCc4ccccc43)C(=O)NC2=O)cc1
8.45%
9) O=C1NC(=O)C(c2cccc(Cl)c2)=C1Nc1ccc(Cl)c(C(=O)O)c1
1.68%
10) COc1ccc2cc(-c3c(-c4ccncc4)nc(-c4ccc(S(C)(=O)=O)cc4C)n3C)ccc2c1
12.3%

====

System: Epidermal growth factor receptor (Homo sapiens), P00533 [L858R]
Sequence (P00533 whole entry L858R): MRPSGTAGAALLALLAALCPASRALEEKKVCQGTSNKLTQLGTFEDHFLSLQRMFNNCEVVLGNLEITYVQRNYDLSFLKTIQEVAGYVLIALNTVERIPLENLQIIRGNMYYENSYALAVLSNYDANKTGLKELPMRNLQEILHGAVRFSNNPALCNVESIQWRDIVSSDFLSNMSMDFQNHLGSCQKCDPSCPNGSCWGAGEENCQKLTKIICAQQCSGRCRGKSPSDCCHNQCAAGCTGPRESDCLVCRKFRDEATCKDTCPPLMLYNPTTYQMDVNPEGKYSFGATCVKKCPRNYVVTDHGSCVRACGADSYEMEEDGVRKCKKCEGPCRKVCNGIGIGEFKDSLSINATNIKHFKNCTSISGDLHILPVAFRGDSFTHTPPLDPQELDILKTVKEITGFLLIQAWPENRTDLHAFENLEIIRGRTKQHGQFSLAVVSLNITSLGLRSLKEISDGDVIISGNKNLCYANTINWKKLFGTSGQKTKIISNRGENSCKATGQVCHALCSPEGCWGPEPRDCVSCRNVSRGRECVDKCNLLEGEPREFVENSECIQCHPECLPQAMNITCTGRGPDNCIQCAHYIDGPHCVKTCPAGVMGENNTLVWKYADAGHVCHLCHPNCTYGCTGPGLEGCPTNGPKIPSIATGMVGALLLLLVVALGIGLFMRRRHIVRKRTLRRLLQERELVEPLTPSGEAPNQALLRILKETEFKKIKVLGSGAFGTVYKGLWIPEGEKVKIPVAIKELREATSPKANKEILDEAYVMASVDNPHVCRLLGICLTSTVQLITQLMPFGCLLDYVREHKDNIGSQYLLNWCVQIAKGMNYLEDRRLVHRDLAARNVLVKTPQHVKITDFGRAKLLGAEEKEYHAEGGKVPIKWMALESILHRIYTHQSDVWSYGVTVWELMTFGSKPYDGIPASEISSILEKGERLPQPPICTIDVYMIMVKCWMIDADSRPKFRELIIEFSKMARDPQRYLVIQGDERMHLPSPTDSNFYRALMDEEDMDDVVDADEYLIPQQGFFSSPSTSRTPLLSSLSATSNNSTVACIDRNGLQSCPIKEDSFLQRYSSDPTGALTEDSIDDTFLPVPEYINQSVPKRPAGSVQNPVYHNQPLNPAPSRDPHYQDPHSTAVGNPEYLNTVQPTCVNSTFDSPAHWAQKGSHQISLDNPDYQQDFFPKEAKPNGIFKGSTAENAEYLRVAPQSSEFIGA
measurement-context: at 1 µM
observation-type: inhibition (%)

1. Nc1nccc(-c2c(-c3ccc(F)cc3)ncn2C2CCC(O)CC2)n1 (stereo not given)
76.8
2. COc1cc(Nc2ncc3c(C)nc(-c4cccc(Oc5ccccc5)c4)n3n2)cc(OC)c1OC
1.65
3. CN(C)CCOc1ccc(-c2cc(-c3ccc4c(c3)CCC4=NO)c(-c3ccncc3)o2)cc1
7.4
4. COc1cc2ncn(-c3cc(OCCc4ccccc4)c(C(N)=O)s3)c2cc1OC
9.43
5. O=C(Nc1n[nH]c2cc(-c3ccccc3)ccc12)C1CC1
5.13
6. COc1cc2ncn(-c3cc(OCc4ccccc4C(F)(F)F)c(C(C)=O)s3)c2cc1OC
3.36
7. C[C@@H](Oc1cc(-n2cnc3ccc(OC4CCN(C)CC4)cc32)sc1C(N)=O)c1ccccc1Cl
3.56
8. CCN(CC)Cc1ccc(Nc2nccc(-c3cnn4ncccc34)n2)cc1
-1.39
9. NS(=O)(=O)c1ccc(N/N=C2\C(=O)Nc3ccc(C(=O)NCCCn4ccnc4)cc32)cc1
6.95
10. O=C(NCC1CC1)c1ccc(-c2cccc(C(=O)NC3CC3)c2)cc1
-2.6

====

system: Aurora kinase A (Homo sapiens) (UniProt O14965);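 further: values are mean percent inhibition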
Sequence (whole entry): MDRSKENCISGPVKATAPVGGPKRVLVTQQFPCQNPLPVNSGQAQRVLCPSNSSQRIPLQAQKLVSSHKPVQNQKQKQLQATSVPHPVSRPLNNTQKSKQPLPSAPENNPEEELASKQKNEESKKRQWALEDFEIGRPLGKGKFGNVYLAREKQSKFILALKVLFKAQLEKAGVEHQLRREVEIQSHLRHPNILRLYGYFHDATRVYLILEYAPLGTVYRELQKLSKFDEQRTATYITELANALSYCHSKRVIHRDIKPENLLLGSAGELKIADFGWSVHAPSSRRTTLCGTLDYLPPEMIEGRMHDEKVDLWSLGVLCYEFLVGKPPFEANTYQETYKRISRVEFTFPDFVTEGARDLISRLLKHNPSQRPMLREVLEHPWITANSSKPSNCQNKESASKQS
measurement-context: at 1 µM
observation-type: inhibition

1) CCS(=O)(=O)c1ccc(OC)c(Nc2ncc(-c3ccccc3Cl)o2)c1
10.9%
2) NCc1ccc(-n2c(-c3nonc3N)nc3cnccc32)cc1
8.79%
3) COc1cc2ncn(-c3cc(OCc4cccs4)c(C(N)=O)s3)c2cc1OC
13.4%
4) c1ccc(-c2n[nH]cc2-c2ccnc(-c3ccc(OCCN4CCOCC4)cc3)c2)nc1
7.41%
5) COc1cc(N2CCN(C(C)C)CC2)ccc1Nc1nc(Nc2ccc(F)cc2C(=O)NC[C@@H](O)CO)c2cc[nH]c2n1
-2.23%
6) NS(=O)(=O)c1ccc(N/N=C2\C(=O)Nc3ccc(-c4cnco4)cc32)cc1
33.1%
7) Cc1ccc(C(=O)NC(C)C)cc1-c1ccc(C(=O)NCC2CC2)cc1
-2.53%
8) CN1CCN(CCCNc2nc3ccc(Oc4ccc(NC(=O)Nc5cc(C(F)(F)F)ccc5F)cc4)cc3[nH]2)CC1
-0.34%
9) COc1cc2ncn(-c3cc(OCCc4ccccc4)c(C(N)=O)s3)c2cc1OC
8.4%
10) CS(=O)(=O)CCNCc1cc(-c2cc3c(Nc4ccc(OCc5cccc(F)c5)c(Cl)c4)ncnc3s2)cs1
4.87%
11) O=C(Nc1n[nH]c2nc(-c3ccc(O)cc3)c(Br)cc12)C1CC1
37.7%
12) COc1ccc(C2=C(N3CCc4ccccc43)C(=O)NC2=O)cc1
12.5%
13) CN(c1ccc(NC(=O)Nc2c(Cl)cccc2Cl)cc1)c1ccnc(Nc2cccc(CS(C)(=O)=O)c2)n1
97.6%
14) CCc1cccc(CC)c1/C=C/c1cncc(C(=O)NC)c1
6.42%
15) COc1cc2ncn(-c3cc(OCc4ccccc4C(F)(F)F)c(C(C)=O)s3)c2cc1OC
4.46%
16) Fc1ccc(-c2ncn(C3CCNCC3)c2-c2ccnc(Oc3ccc(Oc4ccccc4)cc3)n2)cc1
0.96%
17) COc1ccc2ncn(-c3cc(O[C@H](C)c4ccccc4Cl)c(C(N)=O)s3)c2c1
0.29%
18) COc1ccc2cc(-c3c(-c4ccncc4)nc(-c4ccc(S(C)(=O)=O)cc4C)n3C)ccc2c1
17.6%
19) Cc1ccc(NC(=O)c2ccoc2)cc1-c1ccc(C(=O)NCC2CC2)cc1
2.57%
20) O=C(NCC1CC1)c1ccc(-c2cccc(C(=O)NC3CC3)c2)cc1
6.45%
21) CCC(=O)Nc1ccc(C)c(-c2ccc(C(=O)NCC3CC3)cc2)c1
4.11%
22) NS(=O)(=O)c1ccc(Nc2cc(-c3ccc(O)c(F)c3)n[nH]2)cc1
37.3%
23) Fc1ccc(-c2ncn(C3CCNCC3)c2-c2ccnc(Oc3ccc(F)c(F)c3)n2)cc1
-0.3%
24) NC(=O)c1cc(-c2ccc(F)cc2)cc(-c2ccncc2)c1N
4.02%
25) COC(=O)Nc1nc2ccc(Sc3ccc(NC(=O)Nc4cc(C(F)(F)F)ccc4F)cc3)cc2[nH]1
7.64%
26) COc1cccc(/C=N/Nc2ncnc3c2cnn3-c2cccc(OC)c2)c1
3.52%
27) COc1ccc2cc(-c3c(-c4ccncc4)nc(-c4ccc([S+](C)[O-])cc4C)n3C)ccc2c1 (stereo not given)
4.24%
28) C[C@@H](Oc1cc(-n2cnc3ccc(OCC4CCN(C)CC4)cc32)sc1C(N)=O)c1ccccc1Cl
6.43%
29) NC(=O)c1cc(-c2ccncc2)cc(-c2ccccc2)c1N
6.63%
30) O=C1NC(=O)C(c2cccc(Cl)c2)=C1Nc1ccc(Cl)c(C(=O)O)c1
8.62%
31) Cc1nnc(-c2ccc(C)c(-c3ccc(C(=O)NCc4ccc(Cl)cc4)cc3)c2)o1
-4.05%
32) CN(C)CCOc1ccc(-c2cc(-c3ccc4c(c3)CCC4=NO)c(-c3ccncc3)o2)cc1
0.04%
33) O=C1Nc2ccc(I)cc2C1=Cc1cc(Br)c(O)c(Br)c1
9.69%
34) c1ccc(Oc2ccc(Nc3ncc(-c4ccccc4)o3)cc2)cc1
10.2%
35) COc1cc(Nc2ncc(-c3ccccc3)o2)cc(OC)c1OC
75.5%
36) Clc1ccc(CNc2nccc(-c3cnn4ncccc34)n2)cc1
10.8%
37) Fc1ccc(-c2ncn(CCCN3CCOCC3)c2-c2ccncc2)cc1
3.87%
38) COc1cc(Nc2ncc3c(C)nc(-c4cccc(Oc5ccccc5)c4)n3n2)cc(OC)c1OC
44.4%
39) NC(=O)Cc1ccccc1Oc1nccc(-c2c(-c3ccc(F)cc3)ncn2C2CCNCC2)n1
0.49%
40) O=C(Nc1ccc(Oc2ccc3[nH]c(NC(=O)c4ccccc4)nc3c2)cc1)Nc1cc(C(F)(F)F)ccc1F
12.4%
